- experimental_system: Ba/F3 (EGFR^del19/T790M/C797S) triple-mutant cells (Homo sapiens, UniProt P00533, T790M/C797S, cells depend on it, form not given)
- Sequence (P00533 with tags, fused parts or gaps DEL746-750/T790M/C797S, form open): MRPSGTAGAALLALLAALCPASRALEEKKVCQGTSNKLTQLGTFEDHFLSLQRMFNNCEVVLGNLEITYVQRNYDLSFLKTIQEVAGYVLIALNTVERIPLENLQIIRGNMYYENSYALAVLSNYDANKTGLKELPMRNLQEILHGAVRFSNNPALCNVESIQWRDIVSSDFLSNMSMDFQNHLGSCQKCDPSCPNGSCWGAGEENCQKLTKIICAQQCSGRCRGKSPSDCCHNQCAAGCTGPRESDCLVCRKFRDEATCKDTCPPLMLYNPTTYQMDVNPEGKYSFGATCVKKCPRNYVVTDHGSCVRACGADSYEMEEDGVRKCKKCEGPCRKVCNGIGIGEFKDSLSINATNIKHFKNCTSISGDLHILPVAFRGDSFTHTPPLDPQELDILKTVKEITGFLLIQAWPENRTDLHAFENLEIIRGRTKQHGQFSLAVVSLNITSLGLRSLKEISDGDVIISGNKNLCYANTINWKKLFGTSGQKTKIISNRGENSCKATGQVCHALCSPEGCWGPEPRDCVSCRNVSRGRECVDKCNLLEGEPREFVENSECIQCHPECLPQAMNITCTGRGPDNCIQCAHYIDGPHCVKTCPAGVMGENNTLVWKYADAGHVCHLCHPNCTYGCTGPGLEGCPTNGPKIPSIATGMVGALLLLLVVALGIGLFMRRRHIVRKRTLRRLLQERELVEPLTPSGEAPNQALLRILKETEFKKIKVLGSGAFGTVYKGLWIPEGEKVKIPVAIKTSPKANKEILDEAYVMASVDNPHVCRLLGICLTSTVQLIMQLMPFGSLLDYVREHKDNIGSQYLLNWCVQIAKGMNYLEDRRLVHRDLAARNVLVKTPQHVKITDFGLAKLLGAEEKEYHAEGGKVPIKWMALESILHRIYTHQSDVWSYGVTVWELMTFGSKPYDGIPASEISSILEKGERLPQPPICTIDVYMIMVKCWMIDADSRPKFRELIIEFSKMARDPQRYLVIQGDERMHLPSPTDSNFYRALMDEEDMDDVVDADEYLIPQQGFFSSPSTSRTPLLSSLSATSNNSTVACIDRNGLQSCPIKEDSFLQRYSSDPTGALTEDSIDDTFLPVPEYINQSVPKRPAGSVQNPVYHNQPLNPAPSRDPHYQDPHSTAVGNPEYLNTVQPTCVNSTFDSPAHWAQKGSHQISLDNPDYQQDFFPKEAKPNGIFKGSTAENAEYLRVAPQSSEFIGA
- method_description: Antiproliferative activity against Ba/F3 (EGFR del19/T790M/C797S) triple-mutant cells, Cell Titer Glow
- Type: cell-based
- study_conditions: three days after addition of compounds; read-out: Antiproliferative activity BaF3(EGFR^del19/T790M/C797S) IC50
readout_kind: GI50
Could you give the number and then its unit, please?

- compound: "CN1CCC(Oc2nc(Nc3ccc(N4CCC(N5CCN(C)CC5)CC4)cc3)c(C(N)=O)nc2-c2ccccc2)CC1 [compound 4]"
  assay_result: "295 nM"

Ask | Specify reported GI50 for the compound shown: CN1CCN(C2CCN(c3ccc(Nc4nc(NC5CCOCC5)c(-c5ccncc5)nc4C(N)=O)cc3)CC2)CC1 [compound 39]
Reply | 29 nM

Ask | Using known records, supply GI50 for CO[C@H]1CC[C@H](Nc2nc(Nc3ccc(N4CCC(N5CCN(C)CC5)CC4)cc3)c(C(N)=O)nc2-c2ccccc2)CC1 [compound 115]
Reply | 214 nM

###

IC50, EGFR (WT) (Homo sapiens): measured values

Before answering, review these 5 worked examples.
- smiles_entry: "CN1CCN(C2CCN(c3ccc(Nc4nc(NC5CCOCC5)c(-c5ccccc5)nc4C(N)=O)cc3)CC2)CC1"
  assay_result: "> 300 nM"
- smiles_entry: "CC(C)Nc1nc(Nc2ccc(N3CCC(N4CCN(C)CC4)CC3)cc2)c(C(N)=O)nc1-c1cccc2[nH]ccc12"
  assay_result: "0.27 nM"
- smiles_entry: "CCc1cc(Nc2nc(NC3CC4(COC4)C3)c(-c3cc[nH]n3)nc2C(N)=O)ccc1N1CCC(N2CCN(C)CC2)CC1"
  assay_result: "10.2 nM"
- smiles_entry: "CN1CCN(C2CCN(c3ccc(Nc4nc(NC5CCOCC5)c(-c5cn[nH]c5)nc4C(N)=O)cc3)CC2)CC1"
  assay_result: "> 300 nM"
- smiles_entry: "CN1CCN(C2CCN(c3ccc(Nc4nc(NCC(C)(C)O)c(-c5ccccc5)nc4C(N)=O)cc3)CC2)CC1"
  assay_result: "> 300 nM"

Ask | Quote IC50 with test system EGFR (WT) (Homo sapiens) for `CN(C)C1CCN(c2ccc(Nc3nc(NC4CCOCC4)c(-c4ccccc4)nc3C(N)=O)cc2)CC1`
Reply | > 300 nM

Ask | Provide IC50, system EGFR (WT) (Homo sapiens), entry `CN1CCN(C2CCN(c3ccc(Nc4nc(NC5CCOCC5)c(-c5cc[nH]n5)nc4C(N)=O)cc3)CC2)CC1`
Reply | > 300 nM

###

- experimental_system: Ba/F3 (EGFR^del19/T790M/C797S) triple-mutant cells (Homo sapiens, UniProt P00533, T790M/C797S, cells depend on it, form not given)
- method_description: Antiproliferative activity against Ba/F3 (EGFR del19/T790M/C797S) triple-mutant cells, Cell Titer Glow
- Type: cell-based
- study_conditions: three days after addition of compounds; read-out: Antiproliferative activity BaF3(EGFR^del19/T790M/C797S) IC50
readout_kind: GI50

- smiles_entry: "CCc1cc(Nc2nc(NC3CCOCC3)c(-c3cccc4[nH]ccc34)nc2C(N)=O)ccc1N1CCC(N2CCN(C)CC2)CC1"
  GI50: "42 nM"
- smiles_entry: "CN1CCN(C2CCN(c3ccc(Nc4nc(N[C@H]5CC[C@H](O)CC5)c(-c5cccc6[nH]ccc56)nc4C(N)=O)cc3)CC2)CC1"
  GI50: "5 nM"

Ask | Fill in reported GI50 for this entry: `CN1CCN(C2CCN(c3ccc(Nc4nc(NC5CCOCC5)c(-c5ccccn5)nc4C(N)=O)cc3)CC2)CC1`
Reply | 48 nM

Ask | Read off the recorded GI50 for `CN(C)c1ccc(Nc2nc(NC3CCOCC3)c(-c3ccncc3)nc2C(N)=O)cc1`
Reply | > 100 nM

Ask | Assign GI50 to the following record: `Cc1cc(-c2nc(C(N)=O)c(Nc3ccc(N4CCC(N5CCN(C)CC5)CC4)cc3)nc2NC2CCOCC2)ccn1`
Reply | 23 nM

Ask | Tell me GI50 reported for `COc1cc(Nc2nc(NC3CC4(COC4)C3)c(-c3cc[nH]n3)nc2C(N)=O)ccc1N1CCC(N2CCN(C)CC2)CC1`
Reply | 98 nM

Ask | Give the measured GI50 for `CN(C)C1CCN(c2ccc(Nc3nc(NC4CCOCC4)c(-c4ccccc4)nc3C(N)=O)cc2)CC1`
Reply | 72 nM

Ask | Please list GI50 recorded for the molecule `CC(C)c1cc(Nc2nc(NC3CCOCC3)c(-c3cc[nH]n3)nc2C(N)=O)ccc1N1CCC(N2CCN(C)CC2)CC1`
Reply | 32 nM

Ask | Supply measured GI50 of `NC(=O)c1nc(-c2ccncc2)c(NC2CCOCC2)nc1Nc1ccc(CN2CCOCC2)cc1` in your reply.
Reply | 140 nM

Ask | Please give measured GI50 of the following entry: `Cc1cc(Nc2nc(NC3CCOCC3)c(-c3ccncc3)nc2C(N)=O)ccc1N1CCC(N2CCN(C)CC2)CC1`
Reply | 27 nM

Ask | Specify GI50 for `CC(C)Nc1nc(Nc2ccc(N3CCC(N4CCN(C)CC4)CC3)cc2)c(C(N)=O)nc1-c1cc[nH]n1` and stop.
Reply | 32 nM
